target: human NPR1 (Homo sapiens, UniProt P16066); construct: host or cells: CHO-K1; experiment: Cellular cGMP production assay, human NPR1 expressing CHO-K1 cells (CisBio HTRF); assay type: cell-based; details: cGMP production, 30 min at 37° C., 12-point dose-response from 30 μM
Sequence (P16066 33-1061): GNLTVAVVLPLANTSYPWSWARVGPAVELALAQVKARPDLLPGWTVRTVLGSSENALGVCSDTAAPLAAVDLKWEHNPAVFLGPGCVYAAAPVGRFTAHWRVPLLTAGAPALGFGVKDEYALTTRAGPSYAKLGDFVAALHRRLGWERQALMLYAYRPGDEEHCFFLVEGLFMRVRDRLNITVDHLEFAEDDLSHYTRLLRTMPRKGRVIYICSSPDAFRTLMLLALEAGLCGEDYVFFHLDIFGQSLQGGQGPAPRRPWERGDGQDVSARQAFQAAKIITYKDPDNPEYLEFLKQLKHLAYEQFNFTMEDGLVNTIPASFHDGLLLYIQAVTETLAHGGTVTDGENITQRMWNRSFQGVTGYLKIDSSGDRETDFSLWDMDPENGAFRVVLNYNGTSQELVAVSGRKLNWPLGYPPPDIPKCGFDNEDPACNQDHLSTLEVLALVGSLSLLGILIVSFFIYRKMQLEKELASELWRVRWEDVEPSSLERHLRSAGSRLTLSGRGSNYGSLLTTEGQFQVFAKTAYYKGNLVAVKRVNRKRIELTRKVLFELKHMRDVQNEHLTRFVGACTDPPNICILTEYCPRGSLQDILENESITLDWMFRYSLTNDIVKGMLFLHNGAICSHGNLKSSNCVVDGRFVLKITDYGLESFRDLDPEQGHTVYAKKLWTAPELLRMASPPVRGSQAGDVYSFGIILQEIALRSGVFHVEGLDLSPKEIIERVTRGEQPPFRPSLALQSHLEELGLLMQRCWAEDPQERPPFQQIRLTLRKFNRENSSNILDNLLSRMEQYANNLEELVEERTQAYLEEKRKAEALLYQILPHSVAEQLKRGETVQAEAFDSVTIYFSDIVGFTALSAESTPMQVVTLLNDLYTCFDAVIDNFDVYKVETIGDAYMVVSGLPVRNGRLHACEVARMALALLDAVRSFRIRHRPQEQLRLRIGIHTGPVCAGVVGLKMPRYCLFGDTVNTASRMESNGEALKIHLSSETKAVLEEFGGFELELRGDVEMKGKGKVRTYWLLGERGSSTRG
Reported AC50 values are given for each entry in this list.
Number only, in nM; omit the unit.

compound=CC[C@@H](N(C)c1nc2c(c(N[C@@H](CN3C4CCCC3CC4)c3cnc(C)s3)n1)C[C@H](c1cccc(F)c1)CC2)C12CC(C(=O)O)(C1)C2 tgt="human NPR1 (Homo sapiens, UniProt P16066)" observed_property=AC50 result=249

Can you look up AC50 on human NPR1 (Homo sapiens, UniProt P16066) for CC[C@H]([C@H]1CC[C@H](C(=O)O)CC1)N(C)c1nc2c(c(N[C@@H](CN3CCC[C@H](O)C3)c3cnn(CC)c3)n1)C[C@H](c1cccc(F)c1)CC2 ? 1710

Requested read-out AC50, target or system human NPR1 (Homo sapiens, UniProt P16066), entry CC[C@H]([C@H]1CC[C@H](C(=O)O)CC1)N(C)c1nc2c(c(N[C@@H](CN3C4CCCC3CC4)c3cnn(C)c3)n1)CN(c1ccc(F)cc1)CC2 267

What AC50 appears in the records for this compound with human NPR1 (Homo sapiens, UniProt P16066)? CC[C@H]([C@H]1CC[C@H](C(=O)O)CC1)N(C)c1nc2c(c(N[C@@H](CN3CCC[C@](C)(O)C3)c3cnn(C)c3)n1)C[C@H](c1ccccc1)CC2 406

What AC50 appears in the records for this compound with human NPR1 (Homo sapiens, UniProt P16066)? CC[C@H]([C@H]1CC[C@H](C(=O)O)CC1)N(C)c1nc2c(c(N[C@@H](CN3C4CC5CC(C4)CC3C5)c3cnn(C)c3)n1)C[C@H](c1ccccc1)CC2 346
